Below, each entry is listed with its recorded IC50.
test target: CDK2/CycE (Homo sapiens, UniProt P24941)
Construct: GST
assay: CDK2/CycE kinase assay (Method 2, TR-FRET)
assay context: Method 2, 10 μM ATP
Entry rule: numbers only, all in nM.

These recorded examples may help you get a feel for the data.
Enter measured IC50, system CDK2/CycE (Homo sapiens, UniProt P24941), for the compound shown: CS(=O)(Cc1cc(Nc2cc(-c3ccc(F)c4ccoc34)c(F)cn2)nc(C(F)(F)F)c1)=NC(=O)C(F)(F)F (racemic) [Example 4]
110

Enter measured IC50, system CDK2/CycE (Homo sapiens, UniProt P24941), for the compound shown: CC(=O)N=S(C)(=O)Cc1ccnc(Nc2cc(-c3ccc(F)c4ccoc34)c(F)cn2)c1 (racemic) [Example 10]
166

Enter measured IC50, system CDK2/CycE (Homo sapiens, UniProt P24941), for the compound shown: Cc1cc(CS(C)(=N)=O)cc(Nc2cc(-c3ccc(F)c4ccoc34)c(F)cn2)n1 (racemic) [Example 7]
39

Enter measured IC50, system CDK2/CycE (Homo sapiens, UniProt P24941), for the compound shown: CS(=O)(Cc1ccnc(Nc2cc(-c3ccc(F)c4ccoc34)c(F)cn2)c1)=NC(=O)C(F)(F)F (racemic) [Example 6]
540

Others:
Enter measured IC50, system CDK2/CycE (Homo sapiens, UniProt P24941), for the compound shown: CCNC(=O)N=S(C)(=O)Cc1ccnc(Nc2cc(-c3ccc(F)c4ccoc34)c(F)cn2)c1 (racemic) [Example 12]
113

Enter measured IC50, system CDK2/CycE (Homo sapiens, UniProt P24941), for the compound shown: CCOC(=O)N=S(C)(=O)Cc1ccnc(Nc2cc(-c3ccc(F)c4ccoc34)c(F)cn2)c1 (racemic) [Example 11]
138

Enter measured IC50, system CDK2/CycE (Homo sapiens, UniProt P24941), for the compound shown: CCc1cc(CS(C)(=N)=O)cc(Nc2cc(-c3ccc(F)c4ccoc34)c(F)cn2)n1 (racemic) [Example 8]
14
